target: Brd2(1) Leu110-Ile (Homo sapiens, UniProt P25440, L110I); test: DSF thermal shift; assay type: binding; parameters: Plasmids of the eight single BET bromodomain constructs Brd2(1), Brd2(2), Brd3(1), Brd3(2); His6 (N); made in house; host or cells: E. coli BL21(DE3); details: mutant
Sequence (P25440 74-180 L110I limits assumed): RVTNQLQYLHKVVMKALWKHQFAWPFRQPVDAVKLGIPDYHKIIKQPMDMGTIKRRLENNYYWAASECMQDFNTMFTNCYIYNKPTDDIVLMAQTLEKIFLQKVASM
Recorded ΔTm Brd2(1)*(Leu110-Ile) for the following molecules
Response body: numeric value in K, unit text excluded.

See these solved cases before continuing.
COC(=O)[C@@H](C)[C@@H]1N=C(c2ccc(Cl)cc2)c2cc(OC)ccc2-n2c(C)nnc21 (racemic) [Compound 6] = 0.0
COC(=O)[C@H](C)[C@@H]1N=C(c2ccc(Cl)cc2)c2cc(OC)ccc2-n2c(C)nnc21 (racemic) [Compound 7] = 5.7
CC[C@H](C(=O)OC)[C@@H]1N=C(c2ccc(Cl)cc2)c2cc(OC)ccc2-n2c(C)nnc21 (racemic) [Compound 14] = 0.5

Shifting focus to the molecule that follows.
Exercise: Give ΔTm Brd2(1)*(Leu110-Ile) for the following molecule: COC(=O)CC1(C)N=C(c2ccc(Cl)cc2)c2cc(OC)ccc2-n2c(C)nnc21 (racemic) [Compound 5]
Solution: 3.3

* * *

target: Brd2(1)*(Met165-Leu) (Homo sapiens, UniProt P25440, M165L); construct: Plasmids of the eight single BET bromodomain constructs Brd2(1), Brd2(2), Brd3(1), Brd3(2); His6 (N); made in house; host or cells: E. coli BL21(DE3); experiment: DSF thermal shift; format: binding; settings: mutant
Sequence (P25440 74-180 M165L limits assumed): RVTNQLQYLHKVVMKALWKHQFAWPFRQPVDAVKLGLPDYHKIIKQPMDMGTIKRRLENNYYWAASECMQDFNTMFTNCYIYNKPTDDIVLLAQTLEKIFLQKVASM
MEASURE: ΔTm Brd2(1)*(Met165-Leu)
Hi, when you answer, please include the unit after the number. Thanks!

See these solved cases before continuing.
COc1ccc(S(=O)(=O)Nc2ccc3c(c2)CN(C)C(=O)N3)c(OC)c1 = 2.7 ± 0.3 K
COc1cc(C)ccc1S(=O)(=O)Nc1ccc2c(c1)CN(C)C(=O)N2 = 3.1 ± 0.2 K
Cc1cccc(S(=O)(=O)Nc2ccc3c(c2)CN(C)C(=O)N3)c1 = 0.0 ± 0.1 K
COc1ccc(S(=O)(=O)Nc2ccc3c(c2)CN(C)C(=O)N3)cc1 = 0.1 ± 0.3 K
CN1Cc2cc(NS(=O)(=O)c3ccc(-c4ccccc4)cc3)ccc2NC1=O = 0.0 ± 0.1 K
Cc1cc(C)cc(S(=O)(=O)Nc2ccc3c(c2)CN(C)C(=O)N3)c1 = 4.1 ± 0.6 K
COc1ccc(OC)c(S(=O)(=O)Nc2ccc3c(c2)CN(C)C(=O)N3)c1 = 2.9 ± 0.2 K
COc1ccccc1S(=O)(=O)Nc1ccc2c(c1)CN(C)C(=O)N2 [PFI-1, reference compound] = 1.3 ± 0.3 K
COc1ccc(-c2ccc(S(=O)(=O)Nc3ccc4c(c3)CN(C)C(=O)N4)cc2)cc1 = 1.7 ± 0.1 K

Shifting focus to the compound that follows.
Exercise: Give ΔTm Brd2(1)*(Met165-Leu) for the following compound: "CN1Cc2cc(NS(=O)(=O)c3ccc(C(C)(C)C)cc3)ccc2NC1=O"
Solution: 0.1 ± 0.1 K

* * *

biological target: Brd2(2) (Homo sapiens, UniProt P25440); construct: Plasmids of the eight single BET bromodomain constructs Brd2(1), Brd2(2), Brd3(1), Brd3(2); His6 (N); made in house; host or cells: E. coli BL21(DE3); test: DSF thermal shift; assay type: binding; conditions: wild type
Sequence (P25440 344-453 limits assumed): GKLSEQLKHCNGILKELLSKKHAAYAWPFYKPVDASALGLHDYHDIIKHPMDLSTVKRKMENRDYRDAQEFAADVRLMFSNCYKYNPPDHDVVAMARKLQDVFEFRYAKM
MEASURE: ΔTm Brd2(2) (K)
Response body: numeric value in K, unit text excluded.

See these solved cases before continuing.
Cc1cc(C)cc(S(=O)(=O)Nc2ccc3c(c2)CN(C)C(=O)N3)c1 [Compound 49] = 2.8
CCC[C@H](C(=O)OC)[C@@H]1N=C(c2ccc(Cl)cc2)c2cc(OC)ccc2-n2c(C)nnc21 (racemic) [Compound 15] = 0.5
COC(=O)[C@H](C)[C@@H]1N=C(c2ccc(Cl)cc2)c2cc(OC)ccc2-n2c(C)nnc21 (racemic) [Compound 7] = 5.6

Exercise: Give ΔTm Brd2(2) for the following molecule: CCC[C@@H](C(=O)OC)[C@@H]1N=C(c2ccc(Cl)cc2)c2cc(OC)ccc2-n2c(C)nnc21 (racemic) [Compound 12]
Solution: 2.1

Exercise: Give ΔTm Brd2(2) for the following molecule: COC(=O)CC1N=C(c2ccc(Cl)cc2C)c2cc(OC)ccc2-n2c(C)nnc21 (racemic) [Compound 8]
Solution: 6.6

Exercise: Give ΔTm Brd2(2) for the following molecule: COc1ccc(-c2ccc(S(=O)(=O)Nc3ccc4c(c3)CN(C)C(=O)N4)cc2)cc1 [Compound 50]
Solution: 0.7

Exercise: Give ΔTm Brd2(2) for the following molecule: COC(=O)CC1N=C(c2cc(Cl)ccc2Cl)c2cc(OC)ccc2-n2c(C)nnc21 (stereo not shown) [Compound 17]
Solution: 2.5

* * *

target: Brd2(2)*(Trp370Phe) (Homo sapiens, UniProt P25440, W370F); construct: Plasmids of the eight single BET bromodomain constructs Brd2(1), Brd2(2), Brd3(1), Brd3(2); His6 (N); made in house; host or cells: E. coli BL21(DE3); assay: DSF thermal shift; type: binding; conditions: mutant
Sequence (P25440 344-453 W370F limits assumed): as the sequence (P25440 344-453 limits assumed) above, with W27F counted along it
Recorded ΔTm Brd2(2)*(Tryp370-Phe) for the following compounds
Response body: numeric value in K, unit text excluded.

See these solved cases before continuing.
Cc1cccc(Cl)c1S(=O)(=O)Nc1ccc2c(c1)CN(C)C(=O)N2 = 2.3
COC(=O)CC1N=C(c2cccc3[nH]ccc23)c2cc(OC)ccc2-n2c(C)nnc21 (stereo not shown) = 5.1
CN1Cc2cc(NS(=O)(=O)c3c(Cl)cccc3Cl)ccc2NC1=O = 1.8
COC(=O)CC1N=C(c2cc(C)ccc2C)c2cc(OC)ccc2-n2c(C)nnc21 (racemic) = 0.6

Exercise: // fetch ΔTm Brd2(2)*(Tryp370-Phe); item: COC(=O)CC1N=C(c2cc(Cl)ccc2Cl)c2cc(OC)ccc2-n2c(C)nnc21 (stereo not shown) ; system: Brd2(2)*(Trp370Phe) (Homo sapiens, UniProt P25440, W370F)
Solution: 0.3

Exercise: // fetch ΔTm Brd2(2)*(Tryp370-Phe); item: COc1ccccc1S(=O)(=O)Nc1ccc2c(c1)CN(C)C(=O)N2 [PFI-1, reference compound] ; system: Brd2(2)*(Trp370Phe) (Homo sapiens, UniProt P25440, W370F)
Solution: 2.9

Exercise: // fetch ΔTm Brd2(2)*(Tryp370-Phe); item: COC(=O)CC1N=C(c2ccc(Cl)cc2C)c2cc(OC)ccc2-n2c(C)nnc21 (racemic) ; system: Brd2(2)*(Trp370Phe) (Homo sapiens, UniProt P25440, W370F)
Solution: 2.8

Exercise: // fetch ΔTm Brd2(2)*(Tryp370-Phe); item: "CN1Cc2cc(NS(=O)(=O)c3ccccc3-c3ccccc3)ccc2NC1=O" ; system: Brd2(2)*(Trp370Phe) (Homo sapiens, UniProt P25440, W370F)
Solution: 2.2

Exercise: // fetch ΔTm Brd2(2)*(Tryp370-Phe); item: "Cc1cc(C)c(S(=O)(=O)Nc2ccc3c(c2)CN(C)C(=O)N3)c(C)c1" ; system: Brd2(2)*(Trp370Phe) (Homo sapiens, UniProt P25440, W370F)
Solution: 1.8

Exercise: // fetch ΔTm Brd2(2)*(Tryp370-Phe); item: COC(=O)CC1N=C(c2ccc(Cl)c(C)c2)c2cc(OC)ccc2-n2c(C)nnc21 (racemic) ; system: Brd2(2)*(Trp370Phe) (Homo sapiens, UniProt P25440, W370F)
Solution: 1.5

* * *

target: Brd2(2) Leu383-Ile (Homo sapiens, UniProt P25440, L383I); assay: ITC reverse titration of protein into compound
Sequence (P25440 344-453 L383I limits assumed): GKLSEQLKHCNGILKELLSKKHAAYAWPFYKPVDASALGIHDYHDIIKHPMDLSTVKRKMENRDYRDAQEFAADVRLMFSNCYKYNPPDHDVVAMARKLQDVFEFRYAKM
MEASURE: Kd
Hi, when you answer, please include the unit after the number. Thanks!

Exercise: // fetch Kd; item: COC(=O)[C@H](C)[C@@H]1N=C(c2ccc(Cl)cc2)c2cc(OC)ccc2-n2c(C)nnc21 (racemic) ; system: Brd2(2) Leu383-Ile (Homo sapiens, UniProt P25440, L383I)
Solution: 27 nM

* * *

Target: Brd2(2)*(Leu383-Ala) (Homo sapiens, UniProt P25440, L383A)
Sequence (P25440 344-453 L383A limits assumed): as the sequence (P25440 344-453 limits assumed) above, with L40A counted along it
Test: DSF thermal shift
Assay type: binding
Parameters: Plasmids of the eight single BET bromodomain constructs Brd2(1), Brd2(2), Brd3(1), Brd3(2); His6 (N); made in house; host or cells: E. coli BL21(DE3)
Settings: mutant
Experimental: DSF assays were performed on a LightCycler®480 from Roche or a Mx3005P Real Time PCR machine from Stratagene. […] SYPRO®Orange from Invitrogen Molecular Probes® was used as a reporter dye to monitor the denaturing process of the proteins. […] The temperature was raised with a step of 0.6° C. per minute from 37° C. to 95° C. with the LightCycler®480 collecting 39 measurements per ° C., and 1° C. per minute from 25° C. to 95° C. with Mx3005P, collecting fluorescence readings at the end of each interval. […]
MEASURE: ΔTm Brd2(2)*(Leu383-Ala) (K)
Response body: numeric value in K, unit text excluded.

See these solved cases before continuing.
CC[C@@H](C(=O)OC)[C@@H]1N=C(c2ccc(Cl)cc2)c2cc(OC)ccc2-n2c(C)nnc21 (racemic) = 8.1
COC(=O)[C@H](CC1CC1)[C@@H]1N=C(c2ccc(Cl)cc2)c2cc(OC)ccc2-n2c(C)nnc21 (racemic) = 5.3
COC(=O)[C@@H](C)[C@@H]1N=C(c2ccc(Cl)cc2)c2cc(OC)ccc2-n2c(C)nnc21 (racemic) = 0.8
CC[C@H](C(=O)OC)[C@@H]1N=C(c2ccc(Cl)cc2)c2cc(OC)ccc2-n2c(C)nnc21 (racemic) = 2.4

Shifting focus to the compound that follows.
Exercise: Give ΔTm Brd2(2)*(Leu383-Ala) for the following compound: CCC[C@H](C(=O)OC)[C@@H]1N=C(c2ccc(Cl)cc2)c2cc(OC)ccc2-n2c(C)nnc21 (racemic)
Solution: 1.4

// provenance: patent US20170122958A1
